tested_system: human PPARγ LBD bound to Gal4 DBD (Homo sapiens)
Construct: expressed in transfected cells; host or cells: HepG2
Sequence (P37231 238-503 limits assumed): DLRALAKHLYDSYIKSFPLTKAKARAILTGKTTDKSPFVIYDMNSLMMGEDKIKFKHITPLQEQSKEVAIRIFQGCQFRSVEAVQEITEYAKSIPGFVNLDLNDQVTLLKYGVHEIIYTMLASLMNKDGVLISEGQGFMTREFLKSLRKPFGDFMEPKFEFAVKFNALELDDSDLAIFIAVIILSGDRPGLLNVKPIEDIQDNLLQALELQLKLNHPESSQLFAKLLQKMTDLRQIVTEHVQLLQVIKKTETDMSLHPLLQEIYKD
assay_text: PPARγ transfection luciferase reporter assay in HepG2 cells
Assay type: cell-based
cond: HepG2, 24 h; compared to full agonist response (standard TZD full agonist); read-out: PPARγ % activation
measure: Emax (%)

>>> readout_value("CCc1nc2c(C)cc(/C=C/COC)nc2n1[C@H]1CCc2cc(-c3ccccc3-c3nnn[nH]3)ccc21")
26
>>> readout_value("CCc1nc2c(C)cc(CC[C@@H](C)OC)nc2n1[C@H]1CCc2cc(-c3ccccc3-c3nnn[nH]3)ccc21")
24
>>> readout_value("CCc1nc2c(C)cc(CC[C@H](C)OC)nc2n1[C@H]1CCc2cc(-c3ccccc3-c3nnn[nH]3)ccc21")
21
>>> readout_value("CCc1nc2c(C)cc(COC(C)C)nc2n1[C@H]1CCc2cc(-c3ccccc3-c3nnn[nH]3)ccc21")
32
>>> readout_value("CCc1nc2c(C)cc(CC(O)C(C)C)nc2n1[C@H]1CCc2cc(-c3ccccc3-c3nnn[nH]3)ccc21 (stereo partly shown)")
23
>>> readout_value("CCCc1nc2c(C)cc(CC[C@@H](C)O)nc2n1[C@H]1CCc2cc(-c3ccccc3-c3nnn[nH]3)ccc21")
20
>>> readout_value("CCc1nc2c(C)cc(C(=O)CC(C)C)nc2n1[C@H]1CCc2cc(-c3ccccc3-c3nnn[nH]3)ccc21")
21

* * *

tested_system: human PPARγ LBD bound to Gal4 DBD (Homo sapiens, UniProt P37231)
assay_text: PPARγ transfection luciferase reporter assay in HepG2 cells
cond: HepG2, 24 hours exposure
measure: EC50 (nM)

>>> readout_value("CCc1nc2c(C)cc(CC[C@H](O)CC)nc2n1[C@H]1CCc2cc(-c3ccccc3-c3nnn[nH]3)ccc21")
140
>>> readout_value("CCc1nc2c(C)cc(C3OC3(C)C)nc2n1[C@H]1CCc2cc(-c3ccccc3-c3nnn[nH]3)ccc21 (stereo partly drawn)")
460
>>> readout_value("CCCc1nc2c(C)cc(CCC3(O)CCCC3)nc2n1[C@H]1CCc2cc(-c3ccccc3-c3nnn[nH]3)ccc21")
840

* * *

tested_system: Human recombinant AT1 receptor (Homo sapiens)
Sequence (P30556 whole entry): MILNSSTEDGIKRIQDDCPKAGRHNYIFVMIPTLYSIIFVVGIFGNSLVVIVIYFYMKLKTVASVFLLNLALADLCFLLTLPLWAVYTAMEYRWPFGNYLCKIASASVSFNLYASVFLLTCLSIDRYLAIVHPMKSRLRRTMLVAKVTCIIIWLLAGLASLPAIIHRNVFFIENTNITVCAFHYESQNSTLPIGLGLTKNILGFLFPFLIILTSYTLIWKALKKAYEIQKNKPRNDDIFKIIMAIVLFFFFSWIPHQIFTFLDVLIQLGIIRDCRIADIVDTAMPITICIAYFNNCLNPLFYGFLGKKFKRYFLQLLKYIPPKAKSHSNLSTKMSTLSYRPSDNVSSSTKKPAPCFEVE
assay_text: AT1 receptor radioligand binding (flashplate)
cond: 125I Sar1,Ile8-Angiotensin II radioligand
measure: IC50 (nM)

>>> readout_value("CCc1nc2c(C)cc(CC[C@H](C)OC)nc2n1[C@H]1CCc2cc(-c3ccccc3-c3nnn[nH]3)ccc21")
2
>>> readout_value("C=CCC(O)Cc1cc(C)c2nc(CC)n([C@H]3CCc4cc(-c5ccccc5-c5nnn[nH]5)ccc43)c2n1 (stereo partly shown)")
5.7
>>> readout_value("CCc1nc2c(C)cc(CCC3(O)CCCC3)nc2n1[C@H]1CCc2cc(-c3ccccc3-c3nnn[nH]3)ccc21")
1.1
>>> readout_value("CCc1nc2c(C)cc(CC[C@@](C)(O)C(C)C)nc2n1[C@H]1CCc2cc(-c3ccccc3-c3nnn[nH]3)ccc21")
2.4
